Tested on: ACHN kidney cancer cells
Assay: antitumor activity, sulforhodamine B cell growth assay, ACHN
Type: cell-based
Settings: ACHN, drug exposure 48 hours; read-out: GI50 value: 50% growth inhibitory concentration
reported endpoint: GI50 (µM)
Could you give me the number in µM? Just the number is fine.

Recorded results for 3 compounds are shown here.
COc1c(C)cc2c(c1O)C1C3Cc4c5c(C)c6c(c4C(CNC(=O)C(C)NCC=CCO5)N3C(C#N)C(C2)N1C)OCO6 (stereo not shown) [Compound 42] ... 0.042
C=C1/C=C/CN[C@@H](C)C(=O)NCC2c3c(c(c(C)c4c3OCO4)OC1)C[C@H]1[C@H]3c4c(cc(C)c(OC)c4O)C[C@@H]([C@H](C#N)N21)N3C [Compound 33] ... 0.26
COC1=C(C)C(=O)C2=C(C1=O)[C@H](CNC(=O)[C@H](C)N)N1C(C2)[C@H]2c3c(cc(C)c(OC)c3O)C[C@@H]([C@@H]1C#N)N2C (stereo partly shown) [Cyanosafracin B, reference compound] ... 0.32

# get_value(readout='GI50', item= COc1c(C)cc2c(c1O)C1C3Cc4c5c(C)c6c(c4C(CNC(=O)C(C)NC(=O)OCC4C=C(CO5)CC5C(=O)N(c7ccccc7)C(=O)C45)N3C(C#N)C(C2)N1C)OCO6 (stereo not shown) [Compound 18] )
0.24

====

System: MKN45 gastric cancer cells
Assay: antitumor activity, sulforhodamine B cell growth assay, MKN45
Assay type: cell-based
Settings: MKN45, drug exposure 48 hours; read-out: GI50 value: 50% growth inhibitory concentration
reported endpoint: GI50
The reply should consist of the numeric value with the unit placed after it.

COC1=C(C)C(=O)C2=C(C1=O)[C@H](CNC(=O)[C@H](C)N)N1C(C2)[C@H]2c3c(cc(C)c(OC)c3O)C[C@@H]([C@@H]1C#N)N2C (stereo partly shown) [Cyanosafracin B, reference compound] ... 300 nM
COc1c(C)cc2c(c1O)C1C3Cc4c5c(C)c6c(c4C(CNC(=O)C(C)NC(=O)OCC4C=C(CO5)CC5C(=O)N(c7ccccc7)C(=O)C45)N3C(C#N)C(C2)N1C)OCO6 (stereo not shown) ... 78 nM
C=C1/C=C/CN[C@@H](C)C(=O)NCC2c3c(c(c(C)c4c3OCO4)OC1)C[C@H]1[C@H]3c4c(cc(C)c(OC)c4O)C[C@@H]([C@H](C#N)N21)N3C ... 41 nM

Continue with the next compound.
Any idea what GI50 came out for COc1c(C)cc2c(c1O)C1C3Cc4c5c(C)c6c(c4C(CNC(=O)C(C)NCC=CCO5)N3C(C#N)C(C2)N1C)OCO6 (stereo not shown) on MKN45 gastric cancer cells?
16 nM

====

Property: GI50; scope: individual molecules
Tested on: U251 central nervous system cancer cells
Test: antitumor activity, sulforhodamine B cell growth assay, U251
Type: cell-based
Details: U251, drug exposure 48 hours; read-out: GI50 value: 50% growth inhibitory concentration
Procedure: The THIQ compound containing a macrocyclic structure of the present invention was administered to various cancer cell lines, and the antitumor activity (Go value) was observed. […] Cells were plated at an appropriate density in a 96-well plate in RPMI 1640 together with 5% fetal bovine serum, and adhered overnight. […] The absorbance of the control well (C) and the test well (T) was measured at 525 nm. […]
Could you give me the number in nM? Just the number is fine.

Recorded results for 3 molecules are shown here.
C=C1/C=C/CN[C@@H](C)C(=O)NCC2c3c(c(c(C)c4c3OCO4)OC1)C[C@H]1[C@H]3c4c(cc(C)c(OC)c4O)C[C@@H]([C@H](C#N)N21)N3C ... 55
COc1c(C)cc2c(c1O)C1C3Cc4c5c(C)c6c(c4C(CNC(=O)C(C)NCC=CCO5)N3C(C#N)C(C2)N1C)OCO6 (stereo not shown) ... 13
COC1=C(C)C(=O)C2=C(C1=O)[C@H](CNC(=O)[C@H](C)N)N1C(C2)[C@H]2c3c(cc(C)c(OC)c3O)C[C@@H]([C@@H]1C#N)N2C (stereo partly shown) [Cyanosafracin B, reference compound] ... 370

# get_value(readout='GI50', item= COc1c(C)cc2c(c1O)C1C3Cc4c5c(C)c6c(c4C(CNC(=O)C(C)NC(=O)OCC4C=C(CO5)CC5C(=O)N(c7ccccc7)C(=O)C45)N3C(C#N)C(C2)N1C)OCO6 (stereo not shown) )
50
